// IC50 collected for Cytochrome P450 3A4 (Homo sapiens)
Dear colleague, please return just the value in µM, with no unit written.

Compound | IC50, µM
Cc1ccc(Cc2n[nH]c(=O)n2C)c(F)c1Oc1cc(Cl)cc(C#N)c1 | 12

Q: What IC50 value was documented for this compound, CC1OC(Cc2ccc(Cl)c(Oc3cc(Cl)cc(C#N)c3)c2F)=NNC1=O (configuration not stated) ?
A: 0.27

* * *

biological target: Human immunodeficiency virus type 1 reverse transcriptase (Human immunodeficiency virus 1, UniProt Q72547)
Assay Metric: IC50 (nM)
Answer in nM, number only, no unit symbol.

Molecule | IC50, nM
C[C@H]1NC(Cc2ccc(Cl)c(Oc3cc(Cl)cc(C#N)c3)c2F)=NNC1=O | 11
Cc1cc(Cc2ccc(Cl)c(Oc3cccc(Br)c3)c2)n[nH]c1=O | 130
CC1OC(Cc2ccc(Cl)c(Oc3cc(Cl)cc(C#N)c3)c2F)=NNC1=O (stereo unspecified) | 13

Q: Record request: IC50 value, item Cn1c(Cc2ccc(Cl)c(Oc3cc(Cl)cc(C#N)c3)c2F)n[nH]c1=O
A: 11
